Each entry below carries its recorded pIC50.
Target: myeloperoxidase (MPO) (Homo sapiens (Human))
Assay: MPO chlorination assay (APF)
Assay type: biochemical
Settings: MPO chlorination assay, ranges given; read-out: MPO chlorination assay IC50
pIC50: −log10 of the molar value.

Answered cases to consult:
Nc1cc(SCc2cccc3cccnc23)c2nn[nH]c2n1	≥ 7.22
N#Cc1ccc(OC(F)F)cc1CSc1cc(N)nc2[nH]nnc12	≥ 7.22
Nc1cc(SCc2cc(Cl)cc(S(N)(=O)=O)c2Cl)c2nn[nH]c2n1	≥ 7.22
Cc1nn(C)c(Cl)c1CSc1cc(N)nc2[nH]nnc12	≥ 7.22
N#Cc1cccc(F)c1CSc1nc(N)nc2[nH]nnc12	6.70 to 7.22
CN(C)CCC(Sc1cc(N)nc2[nH]nnc12)c1ccccc1 (stereo not drawn)	6.70 to 7.22

Prompt: Hello, please tell me recorded pIC50 for this one: N#Cc1ccc(CSc2cc(N)nc3[nH]nnc23)c(F)c1
Completion: ≥ 7.22

Prompt: Hello, please tell me recorded pIC50 for this one: Cc1ccc(-c2nc(CSc3cc(N)nc4[nH]nnc34)c(C)s2)cc1
Completion: 6.70 to 7.22

Prompt: Hello, please tell me recorded pIC50 for this one: Nc1cc(SC(c2ccccc2)C(F)(F)F)c2nn[nH]c2n1 (stereo not drawn)
Completion: 6.00 to 6.70

###

Target: myeloperoxidase (MPO) (Homo sapiens (Human), UniProt P05164)
Sequence (P05164 49-745): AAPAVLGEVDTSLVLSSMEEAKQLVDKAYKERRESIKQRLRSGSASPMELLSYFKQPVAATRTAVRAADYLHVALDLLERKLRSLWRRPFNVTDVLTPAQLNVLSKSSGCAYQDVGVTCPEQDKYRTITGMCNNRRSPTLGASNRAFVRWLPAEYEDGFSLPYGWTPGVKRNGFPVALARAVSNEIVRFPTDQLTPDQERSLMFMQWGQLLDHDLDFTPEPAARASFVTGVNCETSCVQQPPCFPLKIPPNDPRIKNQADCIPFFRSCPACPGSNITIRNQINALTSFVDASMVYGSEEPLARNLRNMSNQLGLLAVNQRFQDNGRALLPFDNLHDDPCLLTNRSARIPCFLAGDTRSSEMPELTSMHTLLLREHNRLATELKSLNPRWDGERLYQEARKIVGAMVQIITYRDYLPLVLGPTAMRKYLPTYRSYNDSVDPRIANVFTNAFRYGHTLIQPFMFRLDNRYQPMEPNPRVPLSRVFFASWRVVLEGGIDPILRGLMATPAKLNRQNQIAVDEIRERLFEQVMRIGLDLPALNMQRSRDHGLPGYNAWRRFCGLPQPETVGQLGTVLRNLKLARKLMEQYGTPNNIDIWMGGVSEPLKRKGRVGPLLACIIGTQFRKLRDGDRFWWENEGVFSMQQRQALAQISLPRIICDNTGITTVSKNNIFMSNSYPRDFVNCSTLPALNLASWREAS
Test: MPO chlorination assay (APF)
Assay type: biochemical
Conditions: MPO chlorination assay (APF), Table 1; read-out: APF IC50
MEASURED PARAMETER: IC50 (nM)
Hi! Could you send only the number? It should be in nM, unit omitted.

Answered cases to consult:
Nc1cc(SCc2ccccc2CN2CCC(Oc3ccccc3)C2)c2nn[nH]c2n1 (stereo not drawn) [Example 98]	640
Nc1cc(SCc2cc(F)ccc2OC(F)(F)F)c2nn[nH]c2n1 [Example 66]	20
Nc1cc(SCc2ncccn2)c2nn[nH]c2n1 [Example 57]	500
Nc1cc(SCc2cn(-c3ccc(N4CCCC4)nc3)nc2C(F)(F)F)c2nn[nH]c2n1 [Example 139]	10
CCn1ncc(CSc2nc(N)nc3[nH]nnc23)c1C(F)(F)F [Example 164]	770
Nc1cc(SCc2cc(F)c(-c3ncon3)cc2F)c2nn[nH]c2n1 [Example 28]	80
Nc1cc(SCc2cnn(C3CCCCC3)c2C(F)(F)F)c2nn[nH]c2n1 [Example 116]	530
CS(=O)(=O)c1ccc(CSc2cc(N)nc3[nH]nnc23)c(Cl)c1 [Example 104]	90

Now turn to the next compound.
Prompt: Fill: IC50 (myeloperoxidase (MPO) (Homo sapiens (Human), UniProt P05164)) for this compound Nc1cc(SCc2cn(-c3cnccn3)nc2C(F)F)c2nn[nH]c2n1 [Example 145]
Completion: 80

###

Each entry below carries its recorded IC50.
Molecular target: myeloperoxidase (MPO) (Homo sapiens (Human), UniProt P05164)
Test: MPO chlorination assay (APF)
Assay type: biochemical
Settings: MPO chlorination assay, ranges given; read-out: MPO chlorination assay IC50

Answered cases to consult:
N#Cc1ccc(C2CC2)c(CSc2nc(N)nc3[nH]nnc23)c1	200 to 1000 nM
CN(C)Cc1ccccc1-n1cc(CSc2cc(N)nc3[nH]nnc23)c(C(F)F)n1	≤ 60 nM
Cn1ncc2c(CSc3cc(N)nc4[nH]nnc34)cccc21	60 to 200 nM

Prompt: Hello, please tell me recorded IC50 for this one: Cn1ncc2c(CSc3nc(N)nc4[nH]nnc34)cccc21
Completion: 200 to 1000 nM

Prompt: Hello, please tell me recorded IC50 for this one: N#Cc1ccc(F)cc1CSc1cc(N)nc2[nH]nnc12
Completion: ≤ 60 nM

Prompt: Hello, please tell me recorded IC50 for this one: Nc1cc(SCc2ccccc2Cl)c2nn[nH]c2n1
Completion: ≤ 60 nM

Prompt: Hello, please tell me recorded IC50 for this one: COC(=O)c1ncccc1CSc1cc(N)nc2[nH]nnc12
Completion: 200 to 1000 nM

Prompt: Hello, please tell me recorded IC50 for this one: CC1(NC(=O)c2ccc(F)c(CSc3cc(N)nc4[nH]nnc34)c2)CC1
Completion: 200 to 1000 nM

Prompt: Hello, please tell me recorded IC50 for this one: Nc1cc(SCc2ccc(OC(F)(F)F)cc2)c2nn[nH]c2n1
Completion: ≤ 60 nM

###

Target: UniProt P05164
Experiment: MPO chlorination assay (APF)
Format: biochemical
Details: MPO chlorination assay, ranges given; read-out: MPO chlorination assay IC50
pIC50: −log10 of the molar value.
Each entry below carries its recorded pIC50.

Answered cases to consult:
N#Cc1cccc(-n2cccn2)c1CSc1cc(N)nc2[nH]nnc12 [Example 129]	6.00 to 6.70
Nc1cc(SCc2cnn(Cc3ccccc3)c2)c2nn[nH]c2n1 [Example 32]	6.70 to 7.22
Nc1cc(SCc2cn(-c3ccnnc3)nc2C(F)F)c2nn[nH]c2n1 [Example 143]	6.00 to 6.70
N#Cc1ccc(Cl)cc1CSc1cc(N)nc2[nH]nnc12 [Example 73]	6.70 to 7.22

Prompt: Hello, please tell me recorded pIC50 for this one: N#Cc1cccc(CSc2cc(N)nc3[nH]nnc23)c1 [Example 91]
Completion: ≥ 7.22

Prompt: Hello, please tell me recorded pIC50 for this one: COC(=O)C(Sc1cc(N)nc2[nH]nnc12)c1ccccc1Cl (stereo not drawn) [Example 50]
Completion: 6.70 to 7.22

###

Biological target: myeloperoxidase (MPO) (Homo sapiens (Human))
Assay: MPO chlorination assay (APF)
Format: biochemical
Settings: MPO chlorination assay, ranges given; read-out: MPO chlorination assay IC50
pIC50: −log10 of the molar value.
Each entry below carries its recorded pIC50.

Prompt: Fill: pIC50 (myeloperoxidase (MPO) (Homo sapiens (Human))) for this compound Nc1cc(SCc2cn(-c3ccncc3)nc2C(F)F)c2nn[nH]c2n1
Completion: ≥ 7.22

Prompt: Fill: pIC50 (myeloperoxidase (MPO) (Homo sapiens (Human))) for this compound Nc1cc(SC(C(=O)NCc2ccccc2)c2ccccc2)c2nn[nH]c2n1 (stereo not shown)
Completion: 6.00 to 6.70

Prompt: Fill: pIC50 (myeloperoxidase (MPO) (Homo sapiens (Human))) for this compound Cn1nc(C2CC2)cc1CSc1nc(N)nc2[nH]nnc12
Completion: 6.00 to 6.70

Prompt: Fill: pIC50 (myeloperoxidase (MPO) (Homo sapiens (Human))) for this compound N#Cc1ccc(OC2CC2)cc1CSc1cc(N)nc2[nH]nnc12
Completion: 6.70 to 7.22

Prompt: Fill: pIC50 (myeloperoxidase (MPO) (Homo sapiens (Human))) for this compound Cc1nn(-c2cccc(F)c2)nc1CSc1cc(N)nc2[nH]nnc12
Completion: 6.00 to 6.70

Prompt: Fill: pIC50 (myeloperoxidase (MPO) (Homo sapiens (Human))) for this compound COc1ccc(CSc2cc(N)nc3[nH]nnc23)cc1
Completion: ≥ 7.22

Prompt: Fill: pIC50 (myeloperoxidase (MPO) (Homo sapiens (Human))) for this compound Cc1nn(CC2CC2)c(C)c1CSc1cc(N)nc2[nH]nnc12
Completion: 6.70 to 7.22

Prompt: Fill: pIC50 (myeloperoxidase (MPO) (Homo sapiens (Human))) for this compound Nc1cc(SCc2ccccc2)c2nn[nH]c2n1
Completion: ≥ 7.22

Prompt: Fill: pIC50 (myeloperoxidase (MPO) (Homo sapiens (Human))) for this compound Nc1cc(SC(c2ccccc2)C(O)c2ccccc2)c2nn[nH]c2n1 (stereo not shown)
Completion: 6.70 to 7.22

Prompt: Fill: pIC50 (myeloperoxidase (MPO) (Homo sapiens (Human))) for this compound Nc1cccc(CSc2cc(N)nc3[nH]nnc23)n1
Completion: 6.00 to 6.70

###

Each entry below carries its recorded IC50.
Molecular target: myeloperoxidase (MPO) (Homo sapiens (Human))
Assay: MPO peroxidation assay (Amplex Red)
Type: biochemical
Settings: Table 1

Nc1nc(SCc2ccccc2CN2CCCC2)c2nn[nH]c2n1	0.79 µM
Nc1cc(SCc2cn(-c3ccccc3)nc2C(F)(F)F)c2nn[nH]c2n1	0.02 µM

Now turn to the next molecule.
Prompt: Hello, please tell me recorded IC50 for this one: CS(=O)(=O)c1ccc(CSc2cc(N)nc3[nH]nnc23)c(Cl)c1
Completion: 0.01 µM

###

Each entry below carries its recorded IC50.
Molecular target: myeloperoxidase (MPO) (Homo sapiens (Human))
Assay: MPO chlorination assay (APF)
Type: biochemical
Settings: MPO chlorination assay, ranges given; read-out: MPO chlorination assay IC50

Answered cases to consult:
CC(Sc1cc(N)nc2[nH]nnc12)c1cccnc1 (stereo not shown)	0.06 to 0.2 µM
COC(=O)c1ccc(F)c(CSc2cc(N)nc3[nH]nnc23)c1	0.06 to 0.2 µM
Cn1nc(C2CC2)c(F)c1CSc1cc(N)nc2[nH]nnc12	0.06 to 0.2 µM
Nc1cc(SCc2cn(-c3ccccc3)nc2C(F)F)c2nn[nH]c2n1	≤ 0.06 µM
CN(C)c1cccc(-n2cc(CSc3cc(N)nc4[nH]nnc34)c(C(F)(F)F)n2)n1	0.2 to 1 µM
Cc1nn(Cc2ccccc2)c(Cl)c1CSc1cc(N)nc2[nH]nnc12	0.06 to 0.2 µM

Now turn to the next compound.
Prompt: Hello, please tell me recorded IC50 for this one: Cn1nc(-c2ccccc2)cc1CSc1cc(N)nc2[nH]nnc12
Completion: 0.06 to 0.2 µM
